molecular target: Human M4 (Homo sapiens, UniProt P08173); construct: Human or rat M4 cDNA, along with the chimeric G protein Gqi5, were transfected into Chinese hamster ovary (CHO-K1) cells; test: mAChR M4 cell-based functional assay (calcium flux, decrease of EC80 acetylcholine response); conditions: M4/Gqi5/CHO-K1 cells; decrease of response to EC80 acetylcholine
Sequence (P08173 whole entry): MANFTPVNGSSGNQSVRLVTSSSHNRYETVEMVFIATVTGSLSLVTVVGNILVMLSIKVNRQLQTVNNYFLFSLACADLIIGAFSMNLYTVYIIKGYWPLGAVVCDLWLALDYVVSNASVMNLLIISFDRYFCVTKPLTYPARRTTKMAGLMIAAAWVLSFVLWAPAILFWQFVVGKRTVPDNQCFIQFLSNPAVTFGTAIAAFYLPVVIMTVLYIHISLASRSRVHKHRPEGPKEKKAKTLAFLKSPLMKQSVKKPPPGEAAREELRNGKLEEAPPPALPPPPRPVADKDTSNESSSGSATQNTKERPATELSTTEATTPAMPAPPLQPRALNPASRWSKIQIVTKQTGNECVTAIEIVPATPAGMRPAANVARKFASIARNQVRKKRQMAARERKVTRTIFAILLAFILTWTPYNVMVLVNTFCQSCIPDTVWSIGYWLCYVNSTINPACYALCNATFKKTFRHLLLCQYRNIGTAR
measured-property: pIC50
Answers are plain numbers, as −log10 of the molar value.

The following compounds have reported results that may help.
1. Cc1ccc(F)cc1-c1cc(C#N)c(N[C@H]2C[C@@H]3CN(C[C@@H]4CC5CCC4O5)C[C@@H]3C2)nn1 (stereo partly drawn) [Example 147]; 9.10
2. C[C@@H]1CCCN(c2cc(C(F)(F)F)c(N[C@H]3C[C@@H]4CN(CC5CCOCC5)C[C@@H]4C3)nn2)C1 [Example 136]; 7.69

Fill in the blank: the reported pIC50 of N#Cc1cccc(-c2cc(C(F)(F)F)c(N[C@H]3C[C@@H]4CN(CC5CCOCC5)C[C@@H]4C3)nn2)c1F [Example 60] is ____.
6.63
